The measured values listed here are drawn from patent US6287840A.

target: Cloned cathepsin S (Homo sapiens, UniProt P25774); construct: made in house; assay: Inhibition of cathepsin S, Z-Val-Val-Arg-AMC fluorescence progress curves; assay type: biochemical; settings: values marked *; 25° C., pH 6.5; read-out: kobs /[I]* (approximate second-order inactivation constant)
Sequence (P25774 115-331): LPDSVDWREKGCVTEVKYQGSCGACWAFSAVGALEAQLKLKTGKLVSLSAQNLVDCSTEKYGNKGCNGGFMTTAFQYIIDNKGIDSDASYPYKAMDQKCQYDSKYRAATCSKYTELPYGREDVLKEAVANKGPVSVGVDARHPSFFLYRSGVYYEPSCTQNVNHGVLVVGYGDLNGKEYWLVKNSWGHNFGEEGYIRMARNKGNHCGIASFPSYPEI
Measured kinact/KI, listed per entry.
Reply with just the number (in M⁻¹ s⁻¹).

Sample answers from the record:
// kinact/KI lookup, key: CC(=O)N[C@@H](CC(C)C)C(=O)N[C@@H](CC(C)C)C(=O)N[C@H](/C=C/S(=O)(=O)c1ccccc1)Cc1ccc(O)cc1 [Ac-Leu-Leu-TyrVSPh]
100000

// kinact/KI lookup, key: CC(C)C[C@H](NC(=O)OCc1ccccc1)C(=O)N[C@@H](CC(C)C)C(=O)N[C@H](/C=C/S(=O)(=O)c1ccccc1)Cc1ccc(O)cc1 [Z-Leu-Leu-TyrVSPh]
280000

// kinact/KI lookup, key: CN(C)S(=O)(=O)N[C@@H](Cc1ccccc1)C(=O)N[C@H](/C=C/S(=O)(=O)c1ccccc1)CCc1ccccc1 [DimSam-Phe-HphVSPh]
920000

Then this compound:
// kinact/KI lookup, key: COC(=O)CCC(=O)N[C@@H](Cc1ccccc1)C(=O)N[C@H](/C=C/S(=O)(=O)c1ccccc1)CCc1ccccc1 [MeOSuc-Phe-HphVSPh]
740000
